target: Fel d 1 (Felis catus, UniProt P30438+P30440); construct: polyhistidine tag (C); made in house; host or cells: E. coli Rosetta-gami 2; assay: Competitive fluorescence-quenching assay, Fel d 1; assay type: binding, cat; settings: 5 μM Fel d 1 + 1,8-ANS complex, 100 μM ligand; read-out: Mean fluorescence inhibition
Sequence (P30438+P30440 fused): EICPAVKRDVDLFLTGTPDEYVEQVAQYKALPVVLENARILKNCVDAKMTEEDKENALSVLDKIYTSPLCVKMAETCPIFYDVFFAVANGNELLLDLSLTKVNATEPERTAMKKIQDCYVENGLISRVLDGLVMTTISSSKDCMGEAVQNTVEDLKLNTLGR
Below is a list of entries, each paired with its recorded inhibition at 100 µM value.
I only need the number, in %, no unit after it.

Enquiry: Please report the measured inhibition at 100 µM for CC(C)CCCC(C)CCO (stereo not shown) [3,7-dimethyl-1-octanol]
Return: 58.3

Enquiry: Please report the measured inhibition at 100 µM for CCCCCCCCO [Caprylic alcohol, 1-octanol]
Return: 56.5

Enquiry: Please report the measured inhibition at 100 µM for CCCCCCCCCCCCO [1-Dodecanol, 1-dodecanol]
Return: 44.2

Enquiry: Please report the measured inhibition at 100 µM for CC(C)=CCC/C(C)=C/CC/C(C)=C/CO [Farnesol, farnesol]
Return: 11.2

----------
biological target: Cav p 1.0201 (Cavia porcellus, UniProt A0A484HRI4); assay: Competitive fluorescence-quenching assay, Cav p 1.0201; type: binding, guinea pig
Sequence (A0A484HRI4 entry or part of it): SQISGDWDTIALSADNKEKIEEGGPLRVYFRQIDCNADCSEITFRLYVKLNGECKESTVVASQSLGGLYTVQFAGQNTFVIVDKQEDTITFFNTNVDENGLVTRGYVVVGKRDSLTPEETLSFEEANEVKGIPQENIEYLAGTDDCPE
Measurement name: pKi
// scale note: pKi = -log10(conc_M); give the bare number

Enquiry: Please report the measured pKi for CCCCCCCCCCO
Return: 5.96

----------
biological target: human LCN1 (Homo sapiens, UniProt P31025); construct: made in house; host or cells: E. coli Rosetta-gami 2(DE3); test: Competitive fluorescence-quenching assay, LCN1; format: binding; settings: 5 μM LCN1-1,8-ANS complex, 50 μM ligand, n = 2
Sequence (P31025 19-176): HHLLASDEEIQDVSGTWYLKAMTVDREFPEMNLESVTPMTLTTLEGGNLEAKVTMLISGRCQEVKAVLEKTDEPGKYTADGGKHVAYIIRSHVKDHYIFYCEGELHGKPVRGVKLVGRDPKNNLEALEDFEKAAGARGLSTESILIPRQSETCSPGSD
Below is a list of entries, each paired with its recorded inhibition at 50 µM value.
I only need the number, in %, no unit after it.

Solved entries (count: 4):
CC(C)=CCC/C(C)=C/CC/C(C)=C/CO [Farnesol, farnesol]
90.9
CCCCCCCCCCCCCC(=O)O [Tetradecanoic acid, tetradecanoic acid]
91.9
CC1=C(/C=C/C(C)=C/C=C/C(C)=C/CO)C(C)(C)CCC1 [Retinol, retinol]
84.3
CCCCCCCCCCCCCCC(=O)O [Pentadecanoic acid, pentadecanoic acid]
88.7

Note: attention shifts to another entry.
Enquiry: Please report the measured inhibition at 50 µM for CCCCC/C=C\C/C=C\C/C=C\C/C=C\CCCC(=O)O [Arachidonic acid, arachidonic acid]
Return: 96.7

----------
biological target: Cav p 1.0201 (Cavia porcellus, UniProt A0A484HRI4); assay: Competitive fluorescence-quenching assay, Cav p 1.0201; format: binding, guinea pig; conditions: 5 μM Cav p 1.0201-1-AMA complex, 50 μM ligand, n = 2
Measurement name: Mean fluorescence inhibition (%)
I only need the number, in %, no unit after it.

Solved entries (count: 2):
CCCCCCCCCCCCCCO [Tetradecanol, tetradecanol]
97.9
CC(C)=CCCC(C)=CC#N [Geranyl nitrile, geranyl nitrile]
89.1

Note: attention shifts to another entry.
Enquiry: Please report the measured Mean fluorescence inhibition for CCCCCCCCCCCCCCCO [Pentadecanol, pentadecanol]
Return: 94.5

----------
biological target: human LCN1 (Homo sapiens, UniProt P31025); construct: made in house; host or cells: E. coli Rosetta-gami 2(DE3); test: Fluorochrome binding to LCN1 (emission spectra and titration); settings: 5 μM LCN1; multiple binding site analysis, first binding site; read-out: Fluorochrome dissociation constant Kd
Measurement name: Kd (µM)
I only need the number, in µM, no unit after it.

Enquiry: Fetch value of Kd on human LCN1 (Homo sapiens, UniProt P31025) for O=S(=O)(O)c1cccc2cccc(Nc3ccccc3)c12 .
Return: 5

----------
molecular target: Can f 6 (Canis lupus familiaris); construct: polyhistidine tag (C); made in house; host or cells: E. coli Rosetta-gami 2; assay: Competitive fluorescence-quenching assay, Can f 6; assay type: binding, dog; details: 5 μM Can f 6-1-NPN complex, 100 μM ligand; high standard error; read-out: Mean fluorescence inhibition
Sequence (H2B3G5 16-190): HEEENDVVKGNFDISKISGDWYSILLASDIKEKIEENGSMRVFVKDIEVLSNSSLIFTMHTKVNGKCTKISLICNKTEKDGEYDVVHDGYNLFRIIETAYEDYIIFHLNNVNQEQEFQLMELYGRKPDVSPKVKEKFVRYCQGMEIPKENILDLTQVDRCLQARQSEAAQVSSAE
Measurement name: inhibition at 100 µM (%)
I only need the number, in %, no unit after it.

Solved entries (count: 3):
COc1nccnc1CC(C)C
118
CC(C)c1ccccc1O
105
CC(C)c1cccc(O)c1
107

Note: attention shifts to another entry.
Enquiry: Please report the measured inhibition at 100 µM for CC(C)CCCC(C)CCO (stereo not shown)
Return: 100

----------
biological target: Ory c 3 (Oryctolagus cuniculus, UniProt Q9GK63+Q9GK67); test: Fluorochrome binding to Ory c 3 (emission spectra and titration); details: 5 μM Ory c 3; read-out: EC50 fluorochrome concentration
Sequence (Q9GK67 entry or part of it): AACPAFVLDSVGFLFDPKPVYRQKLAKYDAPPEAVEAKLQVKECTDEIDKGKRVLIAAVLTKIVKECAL
Sequence (Q9GK63 entry or part of it): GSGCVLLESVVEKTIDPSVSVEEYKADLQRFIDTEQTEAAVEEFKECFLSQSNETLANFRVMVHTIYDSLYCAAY
Measurement name: pEC50
// scale note: pEC50 = -log10(conc_M); give the bare number

Enquiry: Please report the measured pEC50 for Nc1cccc2cc3ccccc3cc12
Return: 5.16

----------
molecular target: Fel d 1 (Felis catus, UniProt P30438+P30440); construct: polyhistidine tag (C); made in house; host or cells: E. coli Rosetta-gami 2; test: Competitive fluorescence-quenching assay, Fel d 1; format: binding, cat; conditions: Ligand inhibition constant Ki, 5 μM Fel d 1, fluorochrome 1,8-ANS
Measurement name: pKi
// scale note: pKi = -log10(conc_M); give the bare number

Enquiry: Fetch value of pKi on Fel d 1 (Felis catus, UniProt P30438+P30440) for CCCCCCCCCCCC(=O)O .
Return: 4.57

----------
target: Fel d 4 (Felis catus); construct: polyhistidine tag (C); test: Fluorochrome binding to Fel d 4 (emission spectra and titration); conditions: 5 μM Fel d 4; one-site specific binding; read-out: Fluorochrome dissociation constant Kd
Sequence (Q5VFH6 16-186): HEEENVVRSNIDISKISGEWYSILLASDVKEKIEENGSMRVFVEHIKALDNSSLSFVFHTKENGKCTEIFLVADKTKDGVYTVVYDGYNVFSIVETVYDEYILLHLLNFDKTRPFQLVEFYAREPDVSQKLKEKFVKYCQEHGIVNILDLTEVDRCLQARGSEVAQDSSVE
Measurement name: Kd (µM)
I only need the number, in µM, no unit after it.

Enquiry: Please report the measured Kd for c1ccc(Nc2cccc3ccccc23)cc1
Return: 81.7

----------
target: Fel d 1 (Felis catus, UniProt P30438+P30440); construct: polyhistidine tag (C); made in house; host or cells: E. coli Rosetta-gami 2; assay: Fluorochrome binding to Fel d 1 (emission spectra and titration); set-up: species or system cat; details: 5 μM Fel d 1; one-site specific binding; read-out: Fluorochrome dissociation constant Kd
Measurement name: pKd
// scale note: pKd = -log10(conc_M); give the bare number

Enquiry: Fetch value of pKd on Fel d 1 (Felis catus, UniProt P30438+P30440) for O=S(=O)(O)c1cccc2cccc(Nc3ccccc3)c12 .
Return: 3.83

----------
Molecular target: Can f 1 (Canis lupus familiaris)
Sequence (O18873 19-174): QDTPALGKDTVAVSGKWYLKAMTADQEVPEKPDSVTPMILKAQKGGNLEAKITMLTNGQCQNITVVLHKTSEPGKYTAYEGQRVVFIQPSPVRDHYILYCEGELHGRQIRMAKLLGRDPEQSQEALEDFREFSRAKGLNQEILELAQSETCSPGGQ
Experiment: Fluorochrome binding to Can f 1 (emission spectra and titration)
Details: 5 μM Can f 1; half of the allergen binding sites saturated; read-out: EC50 fluorochrome concentration
Method: Stock solutions were prepared at a concentration of 10 mM in 100% ethanol for the fluorochromes 1-aminoanthracene (1-AMA), 8-anilino-1-naphthalensulfonic acid (1,8-ANS) and for all ligands, and in 100% methanol for n-phenyl-1-naphthylamine (1-NPN), respectively. […] Fluorochrome-protein complexes were analyzed at an equimolar concentration of 5 μM in PBS with 5% ethanol in a volume of 100 μL per well in black 96-well non-binding microplates (Greiner Bio-One GmbH, Frickenhausen, Germany). […]
Measurement name: pEC50
// scale note: pEC50 = -log10(conc_M); give the bare number

Enquiry: Please report the measured pEC50 for O=S(=O)(O)c1cccc2cccc(Nc3ccccc3)c12 [1,8-ANS, 8-anilino-1-naphthalensulfonic acid]
Return: 5.19

----------
molecular target: Fel d 1 (Felis catus, UniProt P30438+P30440); construct: polyhistidine tag (C); made in house; host or cells: E. coli Rosetta-gami 2; experiment: Fluorochrome binding to Fel d 1 (emission spectra and titration); design: species or system cat
Measurement name: pEC50
// scale note: pEC50 = -log10(conc_M); give the bare number

Enquiry: Please report the measured pEC50 for c1ccc(Nc2cccc3ccccc23)cc1 [1-NPN, n-phenyl-1-naphthylamine]
Return: 4.68

----------
biological target: Can f 6 (Canis lupus familiaris); construct: polyhistidine tag (C); made in house; host or cells: E. coli Rosetta-gami 2; assay: Fluorochrome binding to Can f 6 (emission spectra and titration); set-up: species or system dog; conditions: 5 μM Can f 6 with 5 μM fluorochrome
Measurement name: Increase of fluorescence intensity upon binding

c1ccc(Nc2cccc3ccccc23)cc1 [1-NPN, n-phenyl-1-naphthylamine]
2–3 fold
O=S(=O)(O)c1cccc2cccc(Nc3ccccc3)c12 [1,8-ANS, 8-anilino-1-naphthalensulfonic acid]
neither reacted
CN(C)c1cccc2c(S(=O)(=O)NCCCCCCCCCCC(=O)O)cccc12 [DAUDA, 11-(Dansylamino)undecanoic acid]
neither reacted
Nc1cccc2cc3ccccc3cc12 [1-AMA, 1-aminoanthracene]
neither reacted

----------
target: Ory c 2; assay: Fluorochrome binding to Ory c 2 (emission spectra and titration); conditions: 5 μM Ory c 2; one-site specific binding; read-out: Fluorochrome dissociation constant Kd
Measurement name: Kd (µM)
I only need the number, in µM, no unit after it.

Enquiry: Please report the measured Kd for Nc1cccc2cc3ccccc3cc12
Return: 5.7

----------
biological target: Cav p 1.0101 (Cavia porcellus, UniProt A0A484HM70, S19A); assay: Competitive fluorescence-quenching assay, Cav p 1.0101; format: binding, guinea pig; details: 5 μM Cav p 1.0101-1-AMA complex, 50 μM ligand, n = 2
Sequence (A0A484HM70 entry or part of it S19A): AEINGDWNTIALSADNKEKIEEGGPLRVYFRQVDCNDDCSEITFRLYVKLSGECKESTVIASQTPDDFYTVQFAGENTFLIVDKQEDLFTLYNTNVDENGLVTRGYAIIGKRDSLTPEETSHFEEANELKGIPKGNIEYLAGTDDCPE
Measurement name: Mean fluorescence inhibition (%)
I only need the number, in %, no unit after it.

CCCCCCCCCCCCCCO
82.4
CCCCCCCCCCCCCCCO
51.3

Note: attention shifts to another entry.
Enquiry: Please report the measured Mean fluorescence inhibition for CC(C)=CCCC(C)=CC#N
Return: 57.4

Hello, the source for this data is paper PMC9385959, in case you need it.
